Assay: solvent given as SMILES
Settings: in CC#N
Sorting guide: entries reporting absorption maximum beneath 400 nm go in the true pile, the rest go in the false pile.

Query string: Quick check: absorption maximum of `c1cc2ccc1CCCc1ccc(c3nsnc13)CCC2` under 400 nm?
Result string: true

Query string: Thanks! And `c1ccc2c(-n3cnc4ccccc43)cccc2c1` ?
Result string: true

Query string: Thanks! And `COc1ccc2c(c1)N(c1ccc(C)cc1)c1cc3c(cc1=N2)Oc1c(cc(C(C)(C)C)cc1C(C)(C)C)N=3` ?
Result string: false

Query string: Thanks! And `COc1c(/C=N/Nc2ccc(C#N)cc2)ccc2ccccc12` ?
Result string: true

Query string: Thanks! And `CC(=O)c1c2c(cc3cc(N(C)C)ccc13)CCC2` ?
Result string: true

Query string: Thanks! And `C[n+]1cc2ccc3c[n+](C)c4ccccc4c3c2c2ccccc21` ?
Result string: false

Query string: Thanks! And `CC1=CC(C)=[N+]2C1=C(c1ccccc1)c1c(C)cc(/C=C/c3ccccc3)n1[B-]2(F)F` ?
Result string: false

Query string: Thanks! And `COc1ccc(-c2cc3c(ccc(=O)n3C)s2)cc1` ?
Result string: true

---

Recorded absorption maximum for the following compounds
Assay: solvent given as SMILES
Conditions: in CC#N
Write the value in nm as a bare number.

- chemical_string: "CCOC(=O)/C(C#N)=C\\c1ccc2c(c1)c1ccccc1n2-c1ccc(C)cc1"
  numeric_readout: 389
- chemical_string: "COC(=O)c1cc(=O)n(C)c2cc(-c3ccc(OC)cc3)sc12"
  numeric_readout: 396
- chemical_string: "CN1C(=O)/C(=C/c2ccncc2)N=C1/C=C/c1ccccc1"
  numeric_readout: 408
- chemical_string: "Cn1cccc1-c1cc(C#N)ccc1C#N"
  numeric_readout: 359
- chemical_string: "c1ccc(N(c2ccccc2)c2ccc(-c3cccc4nc5ccccc5cc34)cc2)cc1"
  numeric_readout: 390

Query string: Param item = `CC1=N/C(=C\c2ccncc2)C(=O)N1C` ; retrieve measured absorption maximum.
Result string: 356

Query string: Thanks! And `O=C(O)c1ccccc1-c1nc(-c2ccccc2)c2ccccn12` ?
Result string: 357

Query string: Thanks! And `Cc1cc2c(ccc3c[n+](C)c(C)cc32)c[n+]1C` ?
Result string: 400
